system: NCI-H322M lung; experiment: NCI-60 one-dose screen, 48 h (100 = growth as untreated, 0 = no growth, -100 = all killed); settings: 10 µM unless noted
This is part of a sample that, as a whole, favours compounds with a hit. Of some 83,000 tested, about 20% had one in any assay.
quantity_measured: growth (%)

>>> df
                                   compound  result_value
0  CCCCCCNC(=O)Oc1ccc(/C(=C(\C)c2ccc(Cl)cc2)c2ccc(OCCN3CCCCC3)cc2)cc1          84.9
1  CCOC(=O)/C(C#N)=C\Nc1ccc2ncnc(Nc3ccc(Cl)cc3Cl)c2c1          75.6
2  COc1cc(Nc2nc(NCCN)nc3cc[nH]c(=O)c23)cc(OC)c1            83
3  Nc1nn(C(=O)Nc2ccc(Cc3ccccc3)cc2)c2ccc(Cl)cc12          65.9
4  CCN(CC)CCNC(=O)c1cn2ncnc(Oc3ccc(NC(=O)Nc4ccc(Cl)c(C(F)(F)F)c4)cc3)c2c1C          4.06
5  Oc1ccc(C#CCOc2ccccc2)cc1CNCCN(Cc1ccccn1)Cc1ccccn1          13.6
6  COc1cc(OCc2cccc(-c3ccc(C(O)c4nccs4)cc3)c2C)cc(OC)c1CNCCNC(C)=O (centres undefined)          99.1
7       COc1ccc(CN2c3ccccc3CCc3ccccc32)cc1F          57.6
8  CCCCCCNC(=O)Oc1ccc(/C(=C(\C)c2ccc(Cl)cc2)c2ccc(OCCCN(C)C)cc2)cc1          81.7

---

system: SK-OV-3 ovarian; test: NCI-60 one-dose screen, 48 h (100 = growth as untreated, 0 = no growth, -100 = all killed); conditions: 10 µM unless noted
The panel holds about 83,000 compounds, 20% with a hit somewhere; the sample as a whole holds those more often.
# growth >= 80% gives 1 (yes), anything below gives 0 (no)

>>> print(df.to_string())
                                    compound  class_name
 0  CCOC(=O)/C=C1\S/C(=N\Nc2ccc([N+](=O)[O-])cc2[N+](=O)[O-])N(Cc2ccccc2)C1=O     1 (yes)
 1  COc1ccc(-c2c(C(=O)NS(C)(=O)=O)n(Cc3cccc(C(F)(F)F)c3)c3ccccc23)cc1     1 (yes)
 2  CCC(=O)Nc1ccc(-c2nc(-c3cccc(OC)c3)c(-c3ccnc(Br)c3)[nH]2)cc1     1 (yes)
 3  COc1ccc(-c2nn(C(=O)c3cc(OC)c(OC)c(OC)c3)c3cc(N)ccc23)cc1      0 (no)
 4     NCCNc1nc2ccccc2c2c(=O)c3cc(F)ccc3sc12     1 (yes)
 5  COc1ccc(-c2nc(NN)c3c(C)nn(-c4ccc(F)cc4)c3n2)cc1      0 (no)
 6  NCCOc1ncccc1/C=C1\c2ccccc2-c2ccc(C(F)F)cc21      0 (no)
 7  Cc1[nH]c(C(=O)Nc2ccc(C(=O)NCCN)cc2OC(C)C)c(Cl)c1Cl     1 (yes)
 8            O=C(Nc1ccc(I)cc1F)c1cc(I)ccc1O      0 (no)
 9  CCc1ccccc1-n1c(N)c(C#N)c(-c2ccc(Cl)cc2)c(C#N)c1=O     1 (yes)
10  Cc1ccc(C2CC(c3ccc(Nc4ccnc5cc(Cl)ccc45)cc3)=NN2C=O)cc1 (centres undefined)     1 (yes)
11  C=C(C)[C@@H]1CC[C@]2(N=C=O)CC[C@]3(C)[C@H](CC[C@@H]4[C@@]5(C)Cc6c([nH]c7ccccc67)C(C)(C)[C@@H]5CC[C@]43C)[C@@H]12     1 (yes)
12  CNCCCNc1nc2ccccc2c2c(=O)c3cc(OC)ccc3sc12     1 (yes)
13  CCCCCCNC(=O)Oc1ccc(/C(=C(\C)c2ccc(OC)cc2)c2ccc(OCCN3CCCCC3)cc2)cc1      0 (no)
14  CCCCCCCCCCCCCCCCCCOc1ccc(CC(=O)OCC[N+](C)(C)C)cc1     1 (yes)
15  CC(C)OC(=O)Nc1ccc(-c2nc(-c3cccc(OCCN4CCOCC4)c3)c(-c3ccnc(Br)c3)[nH]2)cc1      0 (no)
16  COc1cc2cc(Oc3ccc(NC(=O)Nc4cc(C(F)(F)F)cc(C(F)(F)F)c4)cc3)c(C)nc2cc1OCCN1CCOCC1      0 (no)
17               CCCCOc1ccc(/C=N/NC(N)=S)cc1     1 (yes)

---

Tested on: NCI-H522 lung
Assay: NCI-60 one-dose screen, 48 h (100 = growth as untreated, 0 = no growth, -100 = all killed)
Conditions: 10 µM unless noted
Procedure: Growth inhibition of the NCI-H522 human Non-Small Cell Lung tumor cell line is measured as a screen for anti-cancer activity. Cells are grown in 96 well plates and exposed to the test compound for 48 hours. Compounds are tested at a single concentration, which is 10^-5 M for most compounds. The reported endpoint is percent growth (GI% or GIPRCNT), where numbers from 0 - 100% represent growth inhibition, and numbers from -100% - 0 represent cell death. […]
About 83,000 compounds went through this panel and 20% of them were active in at least one assay; those are over-represented in the sample as a whole.
Criterion: growth strictly under 50%. Met: 1.0. Not met: 0.0.

                                    compound  class_name
 0  NS(=O)(=O)c1ccc(-n2nc(C(=O)N/N=C\c3ccc(F)cc3)cc2-c2ccc(Br)cc2)cc1         0.0
 1  CCc1ccc(Oc2c(-c3ccc(OCc4ccc(Cl)cc4)cc3O)nn(C)c2C(F)(F)F)cc1         1.0
 2  COc1cc2cc(Oc3ccc(NC(=O)Nc4cc(C(F)(F)F)cc(C(F)(F)F)c4)cc3)c(C)nc2cc1OCCN1CCOCC1         1.0
 3  CCCCCCN1C(=O)/C(=c2\sc3n(c2=O)C2C(NN=3)N(CC)C(=O)N2CC)c2ccccc21 (centres undefined)         1.0
 4  Cc1ccc(/C=N\NC(=O)c2[nH]c3ccc(F)cc3c2-c2ccccc2)cc1         1.0
 5  CCN(CC)CCNc1nc2ccccc2c2c(=O)c3cc(Cl)ccc3sc12         0.0
 6  COc1ccc2c(c1)c(-c1ccc(-c3cn(C)c4ccc(OC)cc34)o1)cn2C         1.0
 7  Cc1ccc(S(=O)(=O)N/N=C/C2(c3ccccc3)CC2)cc1         0.0
 8  COC(=O)C(Cc1ccccc1)NC(=O)NC(=O)NC(=O)CI (centres undefined)         1.0
 9  CCCCn1c(=O)c(-c2cc(-c3ccc(Cl)cc3)nc(-c3ccc(Cl)cc3)c2)cc2cc(C)ccc21         0.0
10  C=C1CC[C@@]2(C#N)[C@H]3[C@H](CC[C@@H]2C)[C@@H](C)C[C@@H](CC(C)(C)C#N)[C@H]13         1.0
11  CCOC(=O)c1c2c(n(-c3ccc(C#N)cc3)c1-c1ccccc1)C=CCC2         0.0
12  CNC(=O)c1cc(-n2ccc3cc(NC(=O)c4ccc(N5CCOCC5)c(C(F)(F)F)c4)ccc32)ccn1         0.0
13  C[N+]1=C(/C=C/c2ccc(O)c3ncccc23)C(C)(C)c2ccccc21         0.0
14    Cc1nc(/N=C(\N)NC(=O)Nc2cccc(Cl)c2)sc1C         1.0
15  CC1Cc2c(ncn3c(-c4ccc(F)cc4)nnc23)N(C)c2ccccc21 (centres undefined)         0.0
16  COc1cccc(-c2nc(-c3ccc(NC(=O)OC(C)C)cc3)[nH]c2-c2ccnc(Br)c2)c1         1.0
17  CCOc1cccc(NC2=C(Br)C(=O)C(C)=C(C)C2=O)c1         0.0
18  CCCCC1CCCC12NC(=O)NC2=O (centres undefined)         0.0
19  O=C(Nc1ccc(OS(=O)(=O)c2ccc(F)cc2)cc1)c1ccc(Cl)cc1         0.0
20  CSc1ncccc1C(=O)OCC(=O)Nc1oc(C)c2c(C)n[nH]c(=O)c12         0.0
21  Cc1c(C(=O)/C=C/Nc2c(Cl)cc(S(N)(=O)=O)cc2Cl)sc2nc3ccccc3n12         0.0
22  O=C(N/N=C/c1c(Cl)cccc1Cl)c1ccc(C(F)(F)F)nc1Nc1cccc(C(F)(F)F)c1         1.0
23  CNCCCNc1nc2ccccc2c2c(=O)c3cc(OC)ccc3sc12         0.0
24  CC(=O)N1CCN(c2ccc(OCC3CO[C@](Cn4ccnc4)(c4ccc(Cl)cc4Cl)O3)cc2)CC1 (some centres undefined)         0.0
25  COc1nc2ccc(C)cc2cc1-c1nc2c(cnn2-c2ccc(Br)cc2)c(=O)[nH]1         1.0
26  CCC(C)(c1cc(C(C)(C)C)c(O)c(C(C)(C)C)c1)c1cc(C(C)(C)C)c(O)c(C(C)(C)C)c1         0.0
27  Cc1ccc(-c2nc(SCC(=O)Nc3nc(-c4ccc(Cl)cc4)cs3)[nH]c(=O)c2C#N)cc1         0.0
28  O=C(N=c1oc2ccccc2cc1-c1cc2ccccc2[nH]1)Nc1ccc(Cl)cc1         0.0
29  COc1ccc(C2NC(=O)C(C#N)c3c2sc2c(F)cccc32)c(OC)c1 (centres undefined)         1.0
30  COc1ccc(/C=N/Nc2cc(=O)[nH]c3ccc(C)cc23)cc1         0.0
31  OC(COc1ccccc1Cl)CN1CCN(c2cccc(Cl)c2)CC1 (centres undefined)         0.0
32  Cc1ccc(-c2nc(N3CCN(CC(=O)Nc4ccc(Cl)c(C(F)(F)F)c4)CC3)c3ccccc3n2)cc1         0.0
33  CCCCCCCCCCCCCCCCCCOc1ccc(CC(=O)OCC[N+]2(C)CCCCC2)cc1         0.0
34  CC1(C)C2CC1C1(/C=N/NC(N)=S)C(C2)C(C#N)(C#N)C1(C#N)C#N (centres undefined)         1.0
35      Clc1ccc2c(c1)N(CCCN1CCCC1)c1ccccc1S2         0.0
36  C[C@]12CC[C@@H]3c4cc(OC(F)F)c(OS(N)(=O)=O)cc4CC[C@H]3[C@@H]1CC[C@@H]2OS(N)(=O)=O         1.0
37  O=C(CCCCCCSc1nc(-c2ccccc2)cc(-c2ccccc2)n1)NO         1.0
38  O=C(Nc1c2ccccc2nc2ccccc12)c1ccccc1CN1C(=O)c2ccccc2C1=O         1.0
